The measurements presented in this section are drawn from patent US20250027068.

system-name: pooled human IgG (human IgG1, 2, 3 and 4)
Please provide measured Enzyme Activity Endpoint Assay (purified): IgG for the entries that follow.
# output: numeric value plus its unit

Q) // query Enzyme Activity Endpoint Assay (purified): IgG value for entry PRT-389 (protein) MVTSVWTKGVTPPTNFTYGEDVLHAPYVANQGWYDITKTFNGKDDLLCGAATAGNMLHWWFDQNKEQIENYLKKHPEKQKINFKGEQMFDVKEAIDTKDSQLDSKLFEYFKEKAFPYLSTKHLGVFPDHVIDMFINGYRLSLTNHGPTPVKRGSKDPRGGIFDAVFTRGDQSKLLTNRHDFKEKTLKEISDLIKQELTEGKALGISHTYANVRINHVINLWGADFDAEGNLEAIYVTDSDSNASIGMKKYFVGVNSNGKVAISAKEIEEDNIGAQVLGLFTLSTGQDIWNQTN
A) 32 ng/µL

Q) Fill in: Enzyme Activity Endpoint Assay (purified): IgG of PRT-383 (protein) MVTSVWTKGVTPPTNFTYGEDVLHAPYVANQGWYDITKTFNGKDDLLCGAATAGNMLHWWFDQNKEQIENYLKKHPEKQKINFNGEQMFDVKEAIDTKDSQLDSKLFDYFKEKAFPYLSTKHLGVFPDHVIDMFINGYRLSLTNHGPTPVKRGSKDPRGGIFDAVFTRGDQSKLLTNRHDFKEKTLKEISDLIKQELTEGKALGISHTYANVRINHVINLWGADFDAEGNLEAIYVTDSDSNASIGMKKYFVGVNSNGKVAISAKEIEEDNIGAQVLGLFTLSTGQDIWNQTN is ___
A) 0 ng/µL

Q) Param item = PRT-610 (protein) MQITSVWTKGVTPLTPEQFRYNNEDVIHAPYLAHQGWYDITKAFDGKDNLLCGAATAGNMLHWWFDQNKTEIEAYLSKHPEKQKIIFNNQELFDLKAAIDTKDSQTNSQLFNYFRDKAFPNLSARQLGVMPDLVLDMFINGYYLNVFKTQSTDVNRPYQDKDKRGGIFDAVFTRGDQTTLLTARHDLKNKGLNDISTIIKQELTEGRALALSHTYANVSISHVINLWGADFNAEGNLEAIYVTDSDANASIGMKKYYVGINAHGHVAISAYKIEGENIGAQVLGLFTLSSGKDIWQKLSLEHHHHHH ; retrieve measured Enzyme Activity Endpoint Assay (purified): IgG.
A) 0 ng/µL

Q) Please give the measured Enzyme Activity Endpoint Assay (purified): IgG for this protein: PRT-438 (protein) MSQTEDSESLQRLRDIEDFQAEKKKQNVVYTKWLDGVDVKDHDFRKIVDGNIAYYATPLLNGRGLYDINKDFNRDSDKCAAAVAANMFHYWLDRNRDNVDRFLRQNPEKHGIIELPDGQLKLSDFLNTYESDDGYRDKSKLFDFISNNFNGPVWTDKLLDNYINGYAYNYKYGRTIEDPTKNTSKINFFKEVFNEKILTNNHSIRNQNEFSVLLSEALYTGKAIGLSYGPAGLRHSLGHIISVWGADLDADGNVVAIYVTDSDDKKLTIGDERVGLKRYKISTDDEGRLRLTAYEETHNTGGQIRGLWTLDTGKQAWADYFDKTEQTGTDQAEQ
A) 0 ng/µL

Q) Fill in: Enzyme Activity Endpoint Assay (purified): IgG of PRT-624 (protein) MQITSVWTKGVTPLTPEQFRYNNEDVIHAPYLAHQGWYDITKAFDGKDNLLCGAATAGNMLHWWFDQNKTEIEAYLSKHPEKQKIIFNNQELFDLKAAIDTKDSQTNSQLFNYFRDKAFPNLSARQLGVMPDLVLDMFINGYYLNVFKTQSTDVNRDYDDKDKRGGIFDDVFGKGDQTTLLTARHDLKNKGLNDISTIIKQELTEGRALALSHTYANVSISHVINLWGADFNAEGNLEAIYVTDSDANASIGMKKYFVGINAHGHVAISAKKIEGENIGAQVLGLFTLSSGKDIWQKLSLEHHHHHH is ___
A) 96 ng/µL

Q) Request the reported Enzyme Activity Endpoint Assay (purified): IgG associated with PRT-399 (protein) MVTSVWTKGVTPPADFTQGEDVFHAPYVANQGWYDITKTFNGKDDLLCGAATAGNMLHWWFDQNKEYIEAYLKKHPEKQKIMFGDQELLDVRKAINTKGSQKNSELFNYFRDKAFPNLSARRLGVMPDLVLDMFINGYYLNVTKTQTTDVNRTYQEKDKRGGIFDAVFTRGDQSKLLTSRHDFKEKGLKEISDLIKQELTEGKALGLSHTYANVRINHVINLWGADFDSDGNLKAIYVTDSDSNASIGMKKYVVGVNSAGKVAISAKEIKEDNIGAQVLGLFTLSTGQDIWNQTN
A) 1580 ng/µL

Q) Requested field: Enzyme Activity Endpoint Assay (purified): IgG. Item: PRT-605 (protein) MQITSVWTKGVTPLTPEQFRYNNEDVIHAPYLAHQGWYDITKAFDGKDNLLCGAATAGNMLHWWFEQNKTEIEAYLSKYGDTQKIIFNNQELFDLKAAIDTKDSQTNSQLFNYFRDKAFPNLSARQLGVMPDLVLDMFINGYYLNVFKTQSTDVNRPYQDKDKRGGIFDAVFTRGDQTTLLTARHDLKNKGLNDISTIIKQELTEGRALALSHTYANVSISHVINLWGADFNAEGNLEAIYVTDSDANASIGMKKYFVGINAHGHVAISAKKIEGENIGAQVLGLFTLSSGKEIWQKLSLEHHHHHH
A) 100 ng/µL

Q) For the protein PRT-432 (protein) MSQTEDSESLQRLRDIEDFQAEKKKQNVVYTKWLDGVDVKDHDFRKIVDGNIAYYATPLLNGRGFYDINKDFNRDSDKCAAAVAANMFHYWLDRNRDNVDRFLRQNPEKHGIIELPDGQLKLSDFLNTYESDDGYRDKSKLFDFISNNFNGPVWTDKLLDNYINGYAYNSKYGRTIEDPTKNTSKINFFKEVFNEKILTNNHSIRNQNEFSVLLSEALYTGKAIGLSYGPAGLRHSLGHIISVWGADLDADGNVVAIYVTDSDDKKLTIGDERVGLKRYKISTDDEGRLRLTAYEETHNTGGQIRGLWTLDTGKQAWADYFDKTEQTGTDQAEQ , what Enzyme Activity Endpoint Assay (purified): IgG is on record?
A) 0 ng/µL
